system: TK-10 renal; experiment: NCI-60 one-dose screen, 48 h; conditions: 10 µM unless noted
Compounds without any hit were thinned out: in the full panel of roughly 83,000, 20% have a hit. Calls of active or inactive are those of the source. Rule for the calls: active = growth percent below 10; inactive = the rest.
Write down one outcome, taken from active, inactive

// below: answered compounds
Compound | Assigned Category
COc1ccc(CN2C(=O)/C(=C\c3cc(OC)c(OC)c(OC)c3)c3cc(OC)ccc32)cc1 | inactive
O=C(O)c1c([N+](=O)[O-])cnc2ccccc12 | inactive
CN1CCN(Cc2ccc(NC(=O)c3[nH]ncc3Nc3ccnc4ccsc34)cc2)CC1 | inactive

Q: What classification did COc1ccc(-c2cc(C(=O)N=Nc3c(O)[nH]c4ccccc34)no2)cc1 end up with in this test?
Result: inactive

Q: What classification did CCOC(=O)CC(=O)c1c(C)cc(C)cc1C end up with in this test?
Result: inactive

Q: What classification did C=CCSc1nnc(-c2ccc(C(C)(C)C)cc2)n1-c1cccc(C(F)(F)F)c1 end up with in this test?
Result: inactive

Q: What classification did O=[N+]([O-])c1cccc(C2CC(c3ccccc3)=Nc3ccccc3S2)c1 (configuration not stated) end up with in this test?
Result: inactive

Q: What classification did ClC1=C2NC=NC2n2c(nnc2-c2ccc(Cl)cc2)N1 (configuration not stated) end up with in this test?
Result: inactive

Q: What classification did COCCCN=C(N)c1ccc(NC(=O)c2ccc(C(=O)Nc3ccc(C(N)=NCCCOC)cc3)cc2)cc1 end up with in this test?
Result: inactive

---

test system: IGROV1 ovarian; test: NCI-60 one-dose screen, 48 h (100 = growth as untreated, 0 = no growth, -100 = all killed); settings: 10 µM unless noted
This is part of a sample that, as a whole, favours compounds with a hit. Of some 83,000 tested, about 20% had one in any assay.
Friendly reminder: growth below 70% is y, at or above is n.

// below: answered compounds
Compound | Assigned Category
CC(=O)/C(=C/c1cccc(Cl)c1)C(=O)c1ccccc1 | n
COc1cc(NCCCCN=C(N)N)c2ncccc2c1 | y
CC1(C)CC(C(=O)OCCCCCCCCCCC[P+](c2ccccc2)(c2ccccc2)c2ccccc2)C(C)(C)N1O (stereo not given) | y
C=C1CCC2C3(C)COC(c4ccccc4Br)OC3CCC2(C)C1C/C=C1/C(=O)OCC1OC(C)=O (stereo not given) | y
COc1nc2c(cc1S(=O)(=O)c1ccccc1)CCc1c-2cnn1Cc1ccccc1 | n
N#CC1=C(N)Oc2c(ccc3ccccc23)C1c1cccs1 (stereo not given) | y
COCCCNc1nc(NC(=O)c2ccc(F)cc2C)cc(-c2cccnc2)n1 | n
CCCCN(CCCC)CCC(C)(O)c1cc2ccccc2c2ccccc12 (stereo not given) | y

Attention now shifts to the item below.
Q: Does the reported growth of the following compound sit strictly below 70%? O=C(/C=C\c1cccc([N+](=O)[O-])c1)c1ccccc1
Result: y

---

tested on: NCI-H322M lung; test: NCI-60 one-dose screen, 48 h (100 = growth as untreated, 0 = no growth, -100 = all killed); settings: 10 µM unless noted
This is part of a sample that, as a whole, favours compounds with a hit. Of some 83,000 tested, about 20% had one in any assay. The source made the active and inactive calls. Rule for the calls: active = growth percent below 10; inactive = the rest.
Measured Attribute: growth

Known results for compounds:
Compound | Measured Attribute | Test Value
COc1ccc(-c2cc(-c3cccnc3)nc3sc4c(=O)n(-c5ccc(C)cc5)nnc4c23)cc1OC | growth | 97.6% (inactive)
O=C(Nc1cccc2c1C(=O)c1cccc(Nc3cccc4c3C(=O)c3cccc(NC(=O)c5ccccc5)c3C4=O)c1C2=O)c1ccccc1 | growth | 112% (inactive)
COc1ccc(-c2c(C)noc2-c2ccc(O)cc2O)cc1 | growth | 94% (inactive)
COC1=CC(=O)C(OC)=C(OC)C1=O | growth | 94.2% (inactive)
CCOC(=O)CC(=O)c1c(C)cc(C)cc1C | growth | 114% (inactive)

Q: Query (compound): CCCCCCCCOC(=O)CC[C@@H](C)[C@H]1CC[C@H]2[C@@H]3[C@H](OC(=O)CCN)C[C@@H]4C[C@H](OC(=O)CCN)CC[C@]4(C)[C@H]3C[C@H](OC(=O)CCN)[C@]12C ; field requested: growth
Result: 71.4% (inactive)

Q: Query (compound): COc1cnc2c(c1)C(=O)c1c-2n(CCCBr)c(=O)c2cc([N+](=O)[O-])ccc12 ; field requested: growth
Result: 15.5% (inactive)

Q: Query (compound): Cn1c2ccccc2c2c3c(c4c5ccccc5[nH]c4c21)C(=O)N(N)C3=O ; field requested: growth
Result: 85.1% (inactive)

Q: Query (compound): Cc1ccc(-c2nc(/C=N/Nc3cc(C)nc4ccc(Cl)cc34)c(C)o2)cc1 ; field requested: growth
Result: -82.5% (active)

Q: Query (compound): COc1ccc(C2c3ccc4ccccc4c3Oc3ncnc(N)c32)cc1 (stereo unspecified) ; field requested: growth
Result: 88% (inactive)

Q: Query (compound): CS(=O)(=O)c1ccc(-c2cnc3ccc(-c4cccc(S(C)(=O)=O)c4)nn23)cc1 ; field requested: growth
Result: 32.8% (inactive)

Q: Query (compound): COc1ccc(CCN2CCCn3c2nc2ccccc2c3=O)cc1 ; field requested: growth
Result: 45.4% (inactive)

Q: Query (compound): Nc1c(C(=O)Nc2ccccc2)sc2nc3c(cc12)CN(CCc1ccccc1)CC3 ; field requested: growth
Result: 94.2% (inactive)

Q: Query (compound): O=C1O[C@H]([C@H](O)CO)C(O)=C1O ; field requested: growth
Result: 104% (inactive)

Q: Query (compound): COc1ccc(-c2cn3c(-c4ccc(OC)cc4)cnc3c(Oc3ccc4c(C)cc(=O)oc4c3)n2)cc1 ; field requested: growth
Result: 82% (inactive)

Q: Query (compound): Clc1nc(Cl)c2c3c(sc2n1)CCCC3 ; field requested: growth
Result: 90.2% (inactive)

Q: Query (compound): CCCCNP1(NCCCC)=NP(NCCCC)(NCCCC)=NP(NCCCC)(NCCCC)=NP(NCCCC)(NCCCC)=N1 ; field requested: growth
Result: 9.1% (active)

Q: Query (compound): C/C(=C(/c1ccc(O)cc1)c1ccc(Cl)cc1)c1ccccc1 ; field requested: growth
Result: -95% (active)

Q: Query (compound): O=S(=O)(Nc1ccc(F)c(Cl)c1)c1ccc(-c2cnc(C3CC3)o2)cc1 ; field requested: growth
Result: 45.7% (inactive)

Q: Query (compound): COc1cc(NC(N)=NCC(C)(C)COc2ccc(C(F)(F)F)cc2)cnc1C#N ; field requested: growth
Result: 53.1% (inactive)

Q: Query (compound): COc1cnc2c(c1)C(=O)c1c-2n(CCCN2CCCC2)c(=O)c2cc([N+](=O)[O-])ccc12 ; field requested: growth
Result: -11.9% (active)

Q: Query (compound): COc1nc2c(cc1S(=O)(=O)c1ccccc1)CCc1c-2cnn1-c1ccc(Cl)cc1 ; field requested: growth
Result: 101% (inactive)

Q: Query (compound): N#Cc1c(N)nc(N)nc1Nc1ccc(Br)cc1 ; field requested: growth
Result: 89.9% (inactive)

Q: Query (compound): CCN(C(=O)CN1CCN(c2cc3c(cc2F)c(=O)c(C(=O)O)cn3C2CC2)CC1)c1nc(-c2ccc(OC)cc2)cs1 ; field requested: growth
Result: 38.8% (inactive)

Q: Query (compound): COc1ccc(Cl)cc1Nc1nc(C(F)(F)F)ccc1C(=O)N/N=C/c1cccnc1 ; field requested: growth
Result: 59% (inactive)

---

test system: K-562 leukemia; test: NCI-60 one-dose screen, 48 h (100 = growth as untreated, 0 = no growth, -100 = all killed); settings: 10 µM unless noted
The panel holds about 83,000 compounds, 20% with a hit somewhere; the sample as a whole holds those more often.
Records here are stratified by growth; strata: group A (below 10%), group B (10% to below 30%), group C (30% or more)

// below: answered compounds
Compound | Study System | Assigned Category
CC1(C)OCC2OC3(C(=O)O)OC(C)(C)OC3C2O1 (stereo unspecified) | K-562 leukemia | group C
Nc1nc2ccc(-c3nc4ccc5[nH]ncc5c4c4c3CCC4)cc2s1 | K-562 leukemia | group B
COc1cnc2c(c1)C(=O)c1c-2n(CCCN2CCNCC2)c(=O)c2cc([N+](=O)[O-])ccc12 | K-562 leukemia | group A
O=C1c2cccnc2C(=O)c2c1c(C(=O)OCCN1CCCCC1)c1ccccn21 | K-562 leukemia | group A

Q: Kindly state the category for this compound: Nc1c(C(=O)Nc2cccc3c2OCCO3)sc2nc3c(cc12)CN(Cc1ccccc1)CC3
Result: group B

Q: Kindly state the category for this compound: C/C(=C(/c1ccc(O)cc1)c1ccc(Cl)cc1)c1ccccc1
Result: group A

Q: Kindly state the category for this compound: O=C(O)c1c([N+](=O)[O-])cnc2ccccc12
Result: group C
